Listed here: items and their measured inhibition.
Biological target: UniProt:P34972
Sequence (P34972 whole entry): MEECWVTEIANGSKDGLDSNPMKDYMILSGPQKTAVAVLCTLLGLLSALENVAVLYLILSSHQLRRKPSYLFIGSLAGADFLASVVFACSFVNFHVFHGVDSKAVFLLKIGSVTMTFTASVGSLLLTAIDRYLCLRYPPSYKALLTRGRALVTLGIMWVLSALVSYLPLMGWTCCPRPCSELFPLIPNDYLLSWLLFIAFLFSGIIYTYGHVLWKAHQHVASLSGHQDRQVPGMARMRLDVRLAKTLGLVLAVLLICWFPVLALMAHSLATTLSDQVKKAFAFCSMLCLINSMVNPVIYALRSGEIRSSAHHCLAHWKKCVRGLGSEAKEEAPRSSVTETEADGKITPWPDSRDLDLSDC
Assay: Displacement of [3H]CP55,940 from human recombinant CB2 receptor expressed in HEK293 cells at 10 uM
Type: cell-based
Measured Parameter: inhibition (%)

INSERT INTO measurements (smiles_code, unit_tag, endpoint_value) VALUES
  ('O=C1/C(=C/c2ccccc2)N=C2SCCCN12', '%', 18),
  ('CC(C)c1ccc(/C=C2\N=C3SCCCN3C2=O)cc1', '%', 17),
  ('O=C1/C(=C/c2ccc(F)cc2F)N=C2SCCCN12', '%', 0),
  ('O=C1/C(=C/C=C/c2ccccc2)N=C2SCCCN12', '%', 37),
  ('O=C1N2CCCSC2=NC1(c1ccccc1)c1ccccc1', '%', 5),
  ('O=C1/C(=C/c2ccc([N+](=O)[O-])cc2)N=C2SCCCN12', '%', 20),
  ('O=C1/C(=C/c2cccc(OCc3cccc(Cl)c3)c2)N=C2SCCCCN12', '%', 37),
  ('COc1ccccc1/C=C1\N=C2SCCCN2C1=O', '%', 27),
  ('O=C1N=C2SCCCN2/C1=C\C=C\c1ccccc1', '%', 19),
  ('O=C1/C(=C/c2cccc(Oc3ccccc3)c2)N=C2SCCCN12', '%', 9);

meta.source: ChEMBL document CHEMBL3217528
